Values from patent US5002958A

Experiment: Acute toxicity (LD50) in rats
Settings: rat, in vivo, iv, Rats (SD), female
Counter-ions that a name gives are not always drawn.
attribute measured: LD50 (mg/kg)
Expressed in mg/kg, but write only the number.

Give me measured LD50, please, for this compound: CCc1ccc(C(=O)C(C)CN2CCCCC2)cc1 (stereo not shown) [eperisone hydrochloride, Eperisone hydrochloride] 60

###

Experiment: Acute toxicity (LD50) in mice
Details: mouse, in vivo, po, Mice (ICR), male
Structures can show the parent of a compound that is named as a salt.
attribute measured: LD50 (mg/kg)
Reply numerically in mg/kg, unit not repeated.

Tell me its LD50 given CCc1ccc(C(=O)C(C)CN2CCCCC2)cc1 (stereo not shown) [eperisone hydrochloride, Eperisone hydrochloride] as the entry. 1040
